Biological target: BsCspB (cold shock protein B) (UniProt P32081 1-67)
Sequence (P32081 whole entry): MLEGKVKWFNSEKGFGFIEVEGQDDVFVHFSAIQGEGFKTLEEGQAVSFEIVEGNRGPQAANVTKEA
Assay: intrinsic Trp fluorescence quenching; 200 g/L PEG8; 20 mM disodium phosphate pH 7.0, no added salt stated; fluorescence titration 298 K (0.5, 2.8 or 4 uM protein; table marks a/b not explained in the material); stopped-flow 288 K (60 or 300 nM protein); NMR 298 or 294.4 K with 5% D2O
Settings: protein: recombinant; single strand
Outcome measure: Kd (nM)
Just the number please, in nM, no unit attached.

Task: Can you share its Kd? I mean this binder: TTTTTTT (ssDNA) [dT7]
Result: 90

FYI, the data here is from paper PMC8417293.
